assay-procedure: NCI Yeast Anticancer Drug Screen. Data for the cln2 rad14 strain (AID 165);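 note: 0% = growth equal to vehicle treated cultures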
condition-info: S. cerevisiae cln2 rad14 strain, at 50.0 µM (retest, dose inferred, filed as 5.0)
Compounds without any hit were thinned out: in the full panel of roughly 79,000, 15% have a hit. The source made the active and inactive calls. Cut-off read from the data, not from the text of the source: active = growth inhibition above about 70%; inactive = the rest.
# valid calls are active, inactive; nothing else

Field: outcome | Entry: Cc1ccc(N=NC(C(=O)c2ccccc2)C(=O)c2ccccc2)cc1
active

Field: outcome | Entry: Cc1cccc(/C=N/Nc2cc(C)c3ccccc3n2)n1
active

Field: outcome | Entry: CCOC(=O)N1CCN(c2cc(C)nc3cc(OC)ccc23)CC1
inactive

Field: outcome | Entry: Cc1c(C#N)c(N)nc2c(C(N)=O)nsc12
inactive

Field: outcome | Entry: N=C(/C(=C/c1ccccc1)c1ccccc1)c1ccccc1
active

Field: outcome | Entry: CN(C)c1ccc(C(=C2C=CC(=[N+](C)C)C=C2)c2ccc(N(C)C)cc2)cc1 (tested in a mixture with another compound)
active

Field: outcome | Entry: CCOC(=O)/C(=C/c1ccc2ccccc2c1)P(=O)(OCC)OCC
inactive

Field: outcome | Entry: Cc1ccc2c(ccc(CC(=S)[S-])[n+]2C)c1
inactive

Field: outcome | Entry: COc1ccc2c(C)cc(N/N=C/c3ccc(OC)c4ccccc34)nc2c1
active

Field: outcome | Entry: CCN(CC)C(=S)N/N=C/c1cc([N+](=O)[O-])ccc1O
inactive

Field: outcome | Entry: Nc1ccccc1SCc1csc(-c2ccc(Cl)cc2)n1
active

Field: outcome | Entry: CC(=O)N(C1=C(Cl)C(=O)c2ccccc2C1=O)c1ccc(Cl)cc1
active

Field: outcome | Entry: c1ccc(CCc2c[nH]c3ccccc23)cc1
inactive

Field: outcome | Entry: O=C(O)/C(=C/c1c(O)ccc2ccccc12)c1csc(-c2nc(/C(=C\c3c(O)ccc4ccccc34)C(=O)O)cs2)n1
inactive

Field: outcome | Entry: COC(=O)/C=C1/Nc2ccc(Cl)cc2C(=O)NC1=O
inactive

Field: outcome | Entry: O=C1C(=O)N(c2cc(Cl)ccc2Cl)C(=O)C(=O)C1c1nc2ccccc2o1
inactive

Field: outcome | Entry: O=C(CCSCCC(=O)NNc1ccccc1)NNc1ccccc1
inactive

Field: outcome | Entry: COc1ccc(OC)c(N=Nc2c(C)[nH]n(C(N)=S)c2=O)c1
inactive

Field: outcome | Entry: O=[N+]([O-])c1cc(I)c(O)c(/C=N/NS(=O)(=O)c2ccc(Cl)cc2)c1
inactive

Field: outcome | Entry: O=C(O)CCCc1ccc2c(c1Br)C=CC2
active

Field: outcome | Entry: O=[N+]([O-])OC1CCCC(O[N+](=O)[O-])c2c1n([O-])c1ccccc1[n+]2=O (stereo not given)
active

Field: outcome | Entry: CCOC(=O)c1c(-c2ccccc2)csc1NC(=O)CBr
active

Field: outcome | Entry: Oc1c(Cl)c2ccccc2c2ccccc12
inactive

Field: outcome | Entry: CCCCCCCCCCCCCCNCc1ccccc1
active

Field: outcome | Entry: Nc1ccc2c(SCCSc3c4ccccc4nc4cc(N)ccc34)c3ccccc3nc2c1
inactive

Field: outcome | Entry: CC(C)c1ccc(C(=O)OC2CCCCC2)cc1
active

Field: outcome | Entry: CCCCCCCC1SCC(=O)N1c1nncs1 (stereo not given)
active

Field: outcome | Entry: O=C1/C(=C/O)CCc2c1ccc1ccccc21
active

Field: outcome | Entry: O=C(NC(=S)Nc1ncc([N+](=O)[O-])s1)c1ccccc1C(=O)NC(=S)Nc1ncc([N+](=O)[O-])s1
inactive

Field: outcome | Entry: O=C1CCC/C(c2ccccc2)=N\N=C/1c1ccccc1
inactive

====

Field: growth inhibition. Provide a value for each of the compounds that follow.
assay-procedure: NCI Yeast Anticancer Drug Screen. Data for the cln2 rad14 strain (AID 165);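 note: 0% = growth equal to vehicle treated cultures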
condition-info: S. cerevisiae cln2 rad14 strain, at 50.0 µM, active compounds read high
This is part of a sample that, as a whole, favours compounds with a hit. Of some 79,000 tested, about 15% had one in any assay.
The figure you give is taken to be in %; do not add the unit.

Provide growth inhibition value for the following compound: CCN(CC)CCOc1ccc(/C(C#N)=C/c2ccc(C(F)(F)F)cc2)cc1
69.3

Provide growth inhibition value for the following compound: CNC(=O)OC(C)CN1c2ccccc2Sc2ccccc21 (configuration not stated)
90.3

Provide growth inhibition value for the following compound: O=c1c(S(=O)(=O)Oc2ccccc2)coc2cc(F)ccc12
91.5

Provide growth inhibition value for the following compound: OCC(CO)C1c2cccc3ccc4cccc1c4c23
67.3

Provide growth inhibition value for the following compound: Cc1ccc(S(=O)(=O)Oc2ccc3oc4c(CO)ccc(NCCN(C)C)c4c(=O)c3c2)cc1
-2.35

Provide growth inhibition value for the following compound: CCCCC(CC(=O)O)c1ccc(Cl)cc1 (configuration not stated)
70

Provide growth inhibition value for the following compound: CCOC1=C(NC(C)=O)C(=O)c2ccccc2C1=O
83.3

Provide growth inhibition value for the following compound: COc1ccc2c(c1)CCc1c-2ccc(C)c1CCC(=O)O
74.2

Provide growth inhibition value for the following compound: CC(/C=C/c1cccs1)=N\C(=S)NC(N)=S
2.05

Provide growth inhibition value for the following compound: COc1cc(OC)c(SSCCCCS(=O)O)c(OC)c1
44.7

Provide growth inhibition value for the following compound: C=CC(=O)NC(=O)Nc1ccc(Cl)cc1
97.5

Provide growth inhibition value for the following compound: N=C(N)SC1c2ccccc2-c2cc([N+](=O)[O-])ccc21 (configuration not stated)
97.8

====

assay-procedure: NCI Yeast Anticancer Drug Screen. Data for the mec2-1 strain (AID 157)
condition-info: S. cerevisiae mec2-1 strain, at 50.0 µM, active compounds read high
About 79,000 compounds went through this panel and 15% of them were active in at least one assay; those are over-represented in the sample as a whole.
Class Condition met: growth inhibition at least 50%. Class Condition not met: growth inhibition below 50%.

Does the reported growth inhibition for OCCCNc1nc2ccc(Cl)cc2c2ccccc12 fall at or above the 50% mark?
Condition not met

Does the reported growth inhibition for Cc1c2ccccc2c(C)c2c1ccc1ccccc12 fall at or above the 50% mark?
Condition met

Does the reported growth inhibition for CCOC(=O)c1ccc([N+](=O)[O-])o1 fall at or above the 50% mark?
Condition met

Does the reported growth inhibition for CC(=O)OC1CCC23COC(CC(C)C2C)C3(Br)C1 (stereo not given) fall at or above the 50% mark?
Condition not met

Does the reported growth inhibition for O=Cc1cc(O)ccc1Br fall at or above the 50% mark?
Condition met

Does the reported growth inhibition for CCN(CC)CC(C)(C)C(=O)/C=C/c1ccc(Cl)c(Cl)c1 fall at or above the 50% mark?
Condition met

Does the reported growth inhibition for CC(C)(C)c1ccc(O)c(C2CCCCC2)c1 fall at or above the 50% mark?
Condition met

Does the reported growth inhibition for O=C1/C(=C/O)CCc2c1ccc1ccccc21 fall at or above the 50% mark?
Condition met

Does the reported growth inhibition for Oc1c(Cl)cc(Br)cc1Cl fall at or above the 50% mark?
Condition met

Does the reported growth inhibition for CC1=NN(c2nc(N)nc(C(C)Sc3cc(Cl)c(C)cc3S(N)(=O)=O)n2)C(C)(C)C1 (stereo not given) fall at or above the 50% mark?
Condition not met

Does the reported growth inhibition for Cc1cc(N(CCC#N)CCC#N)ccc1/C(N=Nc1cccc([N+](=O)[O-])c1)=N/NC(=O)c1cc(Cl)ccc1O fall at or above the 50% mark?
Condition not met

Does the reported growth inhibition for O=c1ccccn1CCc1cccc2cc(O)ccc12 fall at or above the 50% mark?
Condition not met

Does the reported growth inhibition for C/C=C(\C)C(=O)OC1C(C)C2(O)C(C=C(CO)CC3(O)C(=O)C(C)=CC32)C2C(C)(C)C12OC(=O)CCCCCCCCC (stereo not given) fall at or above the 50% mark?
Condition met

Does the reported growth inhibition for CN(C)c1nc(=Nc2ccc(N=c3nc(N(C)C)ss3)cc2)ss1 fall at or above the 50% mark?
Condition met

Does the reported growth inhibition for Cc1ccc(N=c2cc(-c3ccccc3)oc3ccccc23)c(C)c1 fall at or above the 50% mark?
Condition not met

Does the reported growth inhibition for O=CNc1ccc2c(c1)Cc1cc(NC=O)ccc1-2 fall at or above the 50% mark?
Condition not met

Does the reported growth inhibition for C=C1C(=O)OC2C1CC1OC2C(C)CCC/C(C)=C\CCC1(C)O (stereo not given) fall at or above the 50% mark?
Condition met

Does the reported growth inhibition for CCCCCCCCCCCCCCNCc1ccccc1 fall at or above the 50% mark?
Condition met

Does the reported growth inhibition for C=C(c1ccccc1)[N+](=O)[O-] fall at or above the 50% mark?
Condition met

Does the reported growth inhibition for NCCSC1(O)C(=O)c2ccccc2-c2ccccc21 (stereo not given) fall at or above the 50% mark?
Condition met

Does the reported growth inhibition for COc1cc(C(c2cc3c(cc2O)OCO3)N2CCOCC2)cc(OC)c1OC (stereo not given) fall at or above the 50% mark?
Condition met

Does the reported growth inhibition for C1CCC(OC2CCCCO2)OC1 (stereo not given) fall at or above the 50% mark?
Condition not met

Does the reported growth inhibition for O=C1c2c(O)ccc(O)c2C(=O)c2c(O)ccc(O)c21 fall at or above the 50% mark?
Condition not met

Does the reported growth inhibition for CC(C(O)c1ccccc1)[N+](=O)[O-] (stereo not given) fall at or above the 50% mark?
Condition not met
